Target: IRAK4 protein in THP-1 cells (Homo sapiens, UniProt Q9NWZ3)
Construct: endogenous in cells; host or cells: THP-1
Assay: Degradation of IRAK4 in THP-1 cells (Western blot)
Format: cell-based
Conditions: 24 hours, compound 1-3000 nM
Listed next: entries and their corresponding Dmax.
recorded-metric: Dmax (%)

compound	study-system	observed-measurement
CC(C)(O)c1cc2nn(C3CCN(CC4CCC5(CC4)CCN(C(=O)c4ccc(F)c(N6CCC(=O)NC6=O)c4)CC5)CC3)cc2cc1NC(=O)c1cccc(C(F)(F)F)n1	IRAK4 protein in THP-1 cells (Homo sapiens, UniProt Q9NWZ3)	98.2
COc1cc2nn(C3CCN(CC4CCC5(CC4)CCN(C(=O)c4ccc(F)c(C6CCC(=O)NC6=O)c4)CC5)CC3)cc2cc1NC(=O)c1cccc(C(F)(F)F)n1 (stereo not shown)	IRAK4 protein in THP-1 cells (Homo sapiens, UniProt Q9NWZ3)	100
COc1cc2nn(C3CCN(CCC4CCC5(CC4)CCN(C(=O)c4ccc(Cl)c(N6CCC(=O)NC6=O)c4)CC5)CC3)cc2cc1NC(=O)c1cccc(C(F)(F)F)n1	IRAK4 protein in THP-1 cells (Homo sapiens, UniProt Q9NWZ3)	98
COc1cc2nn(C3CCN(CCCN4CCC5(CC4)CCN(C(=O)c4ccc(OC)c(N6CCC(=O)NC6=O)c4)CC5)CC3)cc2cc1NC(=O)c1cccc(C(F)(F)F)n1	IRAK4 protein in THP-1 cells (Homo sapiens, UniProt Q9NWZ3)	99.1

* * *

Protein target, amino acids: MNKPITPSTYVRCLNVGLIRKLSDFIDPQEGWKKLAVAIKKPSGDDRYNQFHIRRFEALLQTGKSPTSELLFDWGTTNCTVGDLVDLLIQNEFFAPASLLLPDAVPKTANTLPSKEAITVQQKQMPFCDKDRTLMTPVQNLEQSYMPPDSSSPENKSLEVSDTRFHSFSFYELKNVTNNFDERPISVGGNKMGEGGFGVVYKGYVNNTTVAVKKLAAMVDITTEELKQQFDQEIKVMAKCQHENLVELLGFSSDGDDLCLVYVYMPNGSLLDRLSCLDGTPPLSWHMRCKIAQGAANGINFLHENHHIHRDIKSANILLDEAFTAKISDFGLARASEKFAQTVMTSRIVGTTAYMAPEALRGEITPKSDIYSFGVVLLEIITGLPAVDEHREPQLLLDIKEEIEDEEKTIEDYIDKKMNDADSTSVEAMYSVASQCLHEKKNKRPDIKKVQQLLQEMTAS
Mark criterion met only when IC50 stays strictly below 0.02 µM. Values equal to the cut-off are criterion not met.

molecule	qualitative-label
COc1cc2nn(C3CCN(CCOC4CCN(C(=O)c5ccc(OC)c(N6CCC(=O)NC6=O)c5)CC4)CC3)cc2cc1NC(=O)c1cccc(C(F)(F)F)n1 [Example 20]	criterion met
COc1cc2nn(C3CCN(CCCCCN(C)C(=O)c4ccc(OC)c(N5CCC(=O)NC5=O)c4)CC3)cc2cc1NC(=O)c1cccc(C(F)(F)F)n1 [Example 9]	criterion met
COc1cc2nn(C3CCN(CC4CCC5(CC4)CCN(C(=O)c4ccc(OC)c(N6CCC(=O)NC6=O)c4)CC5)CC3)cc2cc1NC(=O)c1cccc(C(F)(F)F)n1 [Example 30]	criterion met
COc1cc2nn([C@H]3CC[C@H](COCCC4CCN(C(=O)c5ccc(Cl)c(N6CCC(=O)NC6=O)c5)CC4)CC3)cc2cc1NC(=O)c1cccc(C(F)(F)F)n1 [Example 64]	criterion not met
CC(C)(O)c1cc2nn(C3CCN(CCC4CC5(CCN(C(=O)c6ccc(Cl)c(N7CCC(=O)NC7=O)c6)CC5)C4)CC3)cc2cc1NC(=O)c1cccc(C(F)(F)F)n1 [Example 27]	criterion met
CN(CC1CCN(c2cccc3c2C(=O)N(C2CCC(=O)NC2=O)C3=O)CC1)C[C@H]1CC[C@H](n2cc3cc(NC(=O)c4cccc(C(F)(F)F)n4)c(C(C)(C)O)cc3n2)CC1 (stereo partly drawn) [Control group 3, reference compound]	criterion met

* * *

Target: IRAK4 protein in THP-1 cells (Homo sapiens)
Construct: endogenous in cells; host or cells: THP-1
Experiment: Degradation of IRAK4 in THP-1 cells (Western blot)
Type: cell-based
Conditions: 24 hours, compound 1-3000 nM
Listed next: entries and their corresponding DC50.

compound	DC50, nM
CC(C)(O)c1cc2nn(C3CCN(CC4CCC5(CC4)CCN(C(=O)c4ccc(Cl)c(N6CCC(=O)NC6=O)c4)CC5)CC3)cc2cc1NC(=O)c1cccc(C(F)(F)F)n1 [Example 31]	2.6
COc1cc2nn([C@H]3CC[C@H](CN(C)CC4CCN(C(=O)c5ccc(Cl)c(N6CCC(=O)NC6=O)c5)CC4)CC3)cc2cc1NC(=O)c1cccc(C(F)(F)F)n1 [Example 51]	27.5
COc1cc2nn([C@H]3CC[C@H](CN(C)CCCCC4CCN(C(=O)c5ccc(Cl)c(N6CCC(=O)NC6=O)c5)CC4)CC3)cc2cc1NC(=O)c1cccc(C(F)(F)F)n1 [Example 67]	11.5
CC(C)(O)c1cc2nn(C3CCN(CC4CCC5(CC4)CCN(C(=O)c4ccc(F)c(N6CCC(=O)NC6=O)c4)CC5)CC3)cc2cc1NC(=O)c1cccc(C(F)(F)F)n1 [Example 45]	1.9
COc1cc2nn([C@H]3CC[C@H](CCN4CCC5(CC4)CCN(C(=O)c4ccc(Cl)c(N6CCC(=O)NC6=O)c4)CC5)CC3)cc2cc1NC(=O)c1cccc(C(F)(F)F)n1 [Example 54]	1.4
O=C1CCN(c2cc(C(=O)N3CCC4(CCC(CN5CCC(n6cc7cc(NC(=O)c8cccc(C(F)(F)F)n8)c(OC(F)F)cc7n6)CC5)CC4)CC3)ccc2Cl)C(=O)N1 [Example 66]	16.1
COc1cc2nn([C@H]3CC[C@H](N4CCC5(CCN(C(=O)c6ccc(Cl)c(N7CCC(=O)NC7=O)c6)CC5)CC4)CC3)cc2cc1NC(=O)c1cccc(C(F)(F)F)n1 [Example 58]	7.6
COc1cc2nn(C3CCN(CCN4CCC5(CC4)CCN(C(=O)c4ccc(Cl)c(N6CCC(=O)NC6=O)c4)CC5)CC3)cc2cc1NC(=O)c1cccc(C(F)(F)F)n1 [Example 16]	7.1
COc1cc2nn([C@H]3CC[C@H](COCCC4CCN(C(=O)c5ccc(Cl)c(N6CCC(=O)NC6=O)c5)CC4)CC3)cc2cc1NC(=O)c1cccc(C(F)(F)F)n1 [Example 64]	13.9
COc1ccc(C(=O)N2CCC3(CCC(CCN4CCC(n5cc6cc(NC(=O)c7cccc(C(F)(F)F)n7)c(C(C)(C)O)cc6n5)CC4)CC3)CC2)cc1N1CCC(=O)NC1=O [Example 21]	4
CC(C)(O)c1cc2nn(C3CCN(CCC4CCC5(CC4)CCN(C(=O)c4ccc(F)c(N6CCC(=O)NC6=O)c4)CC5)CC3)cc2cc1NC(=O)c1cccc(C(F)(F)F)n1 [Example 34]	2.5

* * *

Listed next: entries and their corresponding Dmax.
Target: IRAK4 protein in THP-1 cells (Homo sapiens)
Construct: endogenous in cells; host or cells: THP-1
Test: Degradation of IRAK4 in THP-1 cells (Western blot)
Assay type: cell-based
Settings: 24 hours, compound 1-3000 nM

structure-string	Dmax / %
CC(C)(C)C(=O)OCN1C(=O)CCN(c2cc(C(=O)N3CCC4(CCC(CCN5CCC(n6cc7cc(NC(=O)c8cccc(C(F)(F)F)n8)c(C(C)(C)O)cc7n6)CC5)CC4)CC3)ccc2Cl)C1=O	97
COc1ccc(C(=O)N2CCC(CCCN3CCC(n4cc5cc(NC(=O)c6cccc(C(F)(F)F)n6)c(C(C)(C)O)cc5n4)CC3)CC2)cc1N1CCC(=O)NC1=O	94.3
COc1cc2nn(C3CCN(CCN4CCC5(CC4)CCN(C(=O)c4ccc(Cl)c(N6CCC(=O)NC6=O)c4)CC5)CC3)cc2cc1NC(=O)c1cccc(C(F)(F)F)n1	99.4
COc1cc2nn([C@H]3CC[C@H](CN(C)CCCCC4CCN(C(=O)c5ccc(Cl)c(N6CCC(=O)NC6=O)c5)CC4)CC3)cc2cc1NC(=O)c1cccc(C(F)(F)F)n1	99.2
CC(C)(O)c1cc2nn(C3CCN(CCN4CCC5(CC4)CCN(C(=O)c4ccc(Cl)c(N6CCC(=O)NC6=O)c4)CC5)CC3)cc2cc1NC(=O)c1cccc(C(F)(F)F)n1	96.9

* * *

Sequence of the target: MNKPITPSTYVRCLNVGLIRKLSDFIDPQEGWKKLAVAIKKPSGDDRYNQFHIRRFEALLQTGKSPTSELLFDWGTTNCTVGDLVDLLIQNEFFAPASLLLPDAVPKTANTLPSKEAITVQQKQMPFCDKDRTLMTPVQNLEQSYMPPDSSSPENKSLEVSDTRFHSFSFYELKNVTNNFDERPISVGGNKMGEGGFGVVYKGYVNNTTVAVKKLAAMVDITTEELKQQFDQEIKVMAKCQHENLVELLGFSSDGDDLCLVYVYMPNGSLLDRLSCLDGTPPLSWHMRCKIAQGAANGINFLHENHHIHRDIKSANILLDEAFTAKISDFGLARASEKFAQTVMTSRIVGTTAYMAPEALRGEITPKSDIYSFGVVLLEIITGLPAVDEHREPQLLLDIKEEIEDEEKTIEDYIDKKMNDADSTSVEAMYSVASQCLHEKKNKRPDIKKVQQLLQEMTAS
pIC50: −log10 of the molar value.
Listed next: entries and their corresponding pIC50.
recorded-metric: pIC50

compound	observed-measurement
CN(C[C@H]1CC[C@H](n2cc3cc(NC(=O)c4cccc(C(F)(F)F)n4)c(C(C)(C)O)cc3n2)CC1)C1CCC2(CC1)CCN(C(=O)c1ccc(Cl)c(N3CCC(=O)NC3=O)c1)CC2 [Example 63]	8.36
O=C1CCN(c2cc(C(=O)N3CCC4(CCC(CN5CCC(n6cc7cc(NC(=O)c8cccc(C(F)(F)F)n8)c(OC(F)(F)F)cc7n6)CC5)CC4)CC3)ccc2Cl)C(=O)N1 [Example 61]	6.89
CC(C)(O)c1cc2nn(C3CCN(CC4CCC5(CC4)CCN(C(=O)c4ccc(F)c(C6CCC(=O)NC6=O)c4)CC5)CC3)cc2cc1NC(=O)c1cccc(C(F)(F)F)n1 (stereo not drawn) [Example 41]	7.55
